Organism: Homo sapiens
TEST_DESCRIPTION: Protein binding in human plasma
TEST_CONDITIONS: read-out: PPB (converted)
Entries annotated with measured fraction unbound

The following compounds have reported results that may help.
>  <MOL>
COc1c(NC(=O)c2ccc(C)c(N3C=C(C(=O)NCC(C)(C)O)NN3)c2)cc(C(C)(C)C)cc1NS(C)(=O)=O

>  <fraction unbound>
0.34

$$$$
>  <MOL>
COc1c(NC(=O)c2ccc(C)c(N3C=C(C(=O)NCC(C)(C)C)NN3)c2)cc(C(C)(C)C)cc1NS(C)(=O)=O

>  <fraction unbound>
0.08

$$$$

Next compound, please.
I am curious: what fraction unbound value has been reported for `COc1c(NC(=O)c2ccc(C)c(N3C=C(C(=O)NCC(C)(C)CN(C)C)NN3)c2)cc(C(C)(C)C)cc1NS(C)(=O)=O` ?
0.34

Values from ChEMBL document CHEMBL1143089
